IC50 values, listed per item
System: HDFa cell lines
Experiment: Cytotoxicity on healthy dermal fibroblasts (MTT / xCELLigence real-time cell analysis)
Assay type: cell-based
Details: Homo sapiens, 24 h, values greater than 100 not calculated, read-out: IC50 (μM) for HDFa cell lines, 24 h
Your answer is read as µM, so omit the unit and give the number.

| compound | experimentalSystem | unitsText | IC50 |
| --- | --- | --- | --- |
| Cc1ccc2oc(-c3ccc(-c4nc5ccccc5o4)[nH]3)nc2c1 [Compound B6] | HDFa cell lines | µM | 98.5 |
| COC(=O)c1ccc2nc(-c3ccc(-c4nc5cc(C)ccc5o4)[nH]3)oc2c1 [Compound B14] | HDFa cell lines | µM | 94.5 |
| Cc1ccc2nc(-c3ccc(-c4nc5cc(Cl)ccc5o4)[nH]3)oc2c1 [Compound B19] | HDFa cell lines | µM | 97.3 |

The compound COc1ccc2oc(-c3ccc(-c4nc5cc(Cl)ccc5o4)[nH]3)nc2c1 [Compound B17] , when measured on HDFa cell lines, yielded IC50 of 98.3

* * *

Test system: HDFa cell lines
Assay: Cytotoxicity on healthy dermal fibroblasts (MTT / xCELLigence real-time cell analysis)
Type: cell-based
Conditions: Homo sapiens, 24 h, values greater than 100 not calculated, read-out: IC50 (μM) for HDFa cell lines, 24 h
Experimental: The cytotoxicity of these derivatives was also assessed in dermal fibroblast cells using xCELLigence analysis as detailed in the Supporting Information. […] xCELLigence Real‐Time Cell Analysis. […] A total of 1 × 10^4 HDFa cells were seeded into each well of the E‐plate, and the cell proliferation curve was monitored for 24 h. […] The Cell Index (CI) value was automatically measured every hour for each well using RTCA Software (version 1.2.1) (Yetkin et al. [2021]; Yıldırım et al. [2022]).
Reported IC50 is given for each of the following compounds.
# number only, unit µM dropped from output

Sample answers from the record:
| compound | experimentalSystem | unitsText | IC50 |
| --- | --- | --- | --- |
| Cc1ccc2nc(-c3ccc(-c4nc5ccccc5o4)[nH]3)oc2c1 | HDFa cell lines | µM | 97.3 |
| Cc1ccc2oc(-c3ccc(-c4nc5ccc(C)cc5o4)[nH]3)nc2c1 | HDFa cell lines | µM | 95.3 |
| COC(=O)c1ccc2nc(-c3ccc(-c4nc5cc(Cl)ccc5o4)[nH]3)oc2c1 | HDFa cell lines | µM | 95.4 |
| Cc1ccc2oc(-c3ccc(-c4nc5cc(C)ccc5o4)[nH]3)nc2c1 | HDFa cell lines | µM | 96.3 |
| COC(=O)c1ccc2nc(-c3ccc(-c4nc5ccc(C)cc5o4)[nH]3)oc2c1 | HDFa cell lines | µM | 95.3 |

Looking up c1ccc2oc(-c3ccc(-c4nc5ccccc5o4)[nH]3)nc2c1 [Compound B1, 2,5‐Bis(Benzo[d]Oxazol‐2‐Yl)‐1H‐Pyrrole] , I found its IC50 recorded as 89.4

Lab note: COc1ccc2oc(-c3ccc(-c4nc5cc(OC)ccc5o4)[nH]3)nc2c1 gave IC50 of 97.3

According to the records, this compound Clc1ccc2oc(-c3ccc(-c4nc5cc(Cl)ccc5o4)[nH]3)nc2c1 displays IC50 of 95.3

* * *

System: HDFa cell lines
Assay: Cytotoxicity on healthy dermal fibroblasts (MTT / xCELLigence real-time cell analysis)
Format: cell-based
Conditions: Homo sapiens, 72 h, values greater than 100 not calculated, read-out: IC50 (μM) for HDFa cell lines, 72 h
Property: IC50; scope: individual molecules
Use µM as the unit, but write only the number.

| molecule | readoutKind | endpointResult |
| --- | --- | --- |
| COC(=O)c1ccc2nc(-c3ccc(-c4nc5ccc(C)cc5o4)[nH]3)oc2c1 [Compound B16] | IC50 | 99.3 |
| Cc1ccc2oc(-c3ccc(-c4nc5ccc(C)cc5o4)[nH]3)nc2c1 [Compound B11] | IC50 | 99.4 |

Next:
Measured IC50, COC(=O)c1ccc2nc(-c3ccc(-c4nc5cc(C)ccc5o4)[nH]3)oc2c1 [Compound B14] : 97.4

* * *

Tested on: HDFa cell lines
Experiment: Cytotoxicity on healthy dermal fibroblasts (MTT / xCELLigence real-time cell analysis)
Type: cell-based
Conditions: Homo sapiens, 24 h, values greater than 100 not calculated, read-out: IC50 (μM) for HDFa cell lines, 24 h
readoutKind: IC50

| compound | experimentalSystem | IC50 |
| --- | --- | --- |
| COC(=O)c1ccc2nc(-c3ccc(-c4nc5ccccc5o4)[nH]3)oc2c1 [Compound B10] | HDFa cell lines | 97.2 µM |
| COc1ccc2oc(-c3ccc(-c4nc5ccc(C)cc5o4)[nH]3)nc2c1 [Compound B15] | HDFa cell lines | ≥ 100 µM |
| COC(=O)c1ccc2nc(-c3ccc(-c4nc5cc(OC)ccc5o4)[nH]3)oc2c1 [Compound B18] | HDFa cell lines | 98.3 µM |

Consider now this further compound.
Value of IC50 reported for the compound Clc1ccc2oc(-c3ccc(-c4nc5ccccc5o4)[nH]3)nc2c1 [Compound B9] is 95.4 µM

* * *

Test system: HDFa cell lines
Test: Cytotoxicity on healthy dermal fibroblasts (MTT / xCELLigence real-time cell analysis)
Type: cell-based
Conditions: Homo sapiens, 72 h, values greater than 100 not calculated, read-out: IC50 (μM) for HDFa cell lines, 72 h
readoutKind: IC50 (µM)
Reply with just the number (in µM).

Please review the following examples before continuing.
| givenSmiles | experimentalSystem | IC50, µM |
| --- | --- | --- |
| Cc1ccc2nc(-c3ccc(-c4nc5ccccc5o4)[nH]3)oc2c1 | HDFa cell lines | 100 |
| COC(=O)c1ccc2nc(-c3ccc(-c4nc5ccccc5o4)[nH]3)oc2c1 | HDFa cell lines | 99.9 |
| Cc1ccc2oc(-c3ccc(-c4nc5cc(C)ccc5o4)[nH]3)nc2c1 | HDFa cell lines | 99.3 |

The measured IC50 associated with Cc1ccc2oc(-c3ccc(-c4nc5ccccc5o4)[nH]3)nc2c1 reads 99.1

The reported IC50 of the compound COc1ccc2oc(-c3ccc(-c4nc5cc(Cl)ccc5o4)[nH]3)nc2c1 was 99

Data point: Cc1ccc2nc(-c3ccc(-c4nc5cc(Cl)ccc5o4)[nH]3)oc2c1 ; IC50 = 99.8

// IC50 lookup, compound = Clc1ccc2oc(-c3ccc(-c4nc5ccccc5o4)[nH]3)nc2c1 , result: 101

* * *

System: MCF‐7 cell lines
Assay: MTT assay, cytotoxicity on MCF-7 cells
Format: cell-based, human
Details: Homo sapiens, MCF7, read-out: IC50 (μM) for MCF‐7 cell lines; MTT, 48 h
# note: boundary value 3 µM maps to 0.0; IC50 below it maps to 1.0

// known answers, use as guide
| givenSmiles | discreteLabel |
| --- | --- |
| COc1ccc2oc(-c3ccc(-c4nc5cc(Cl)ccc5o4)[nH]3)nc2c1 | 0.0 |
| Cc1ccc2oc(-c3ccc(-c4nc5ccc(C)cc5o4)[nH]3)nc2c1 | 0.0 |
| COc1ccc2oc(-c3ccc(-c4nc5ccc(C)cc5o4)[nH]3)nc2c1 | 0.0 |

Input line: Is it true that IC50 reported for Cc1ccc2nc(-c3ccc(-c4nc5ccccc5o4)[nH]3)oc2c1 is less than 3 µM?
Output line: 0.0

* * *

Overview of recorded IC50 for various compounds
System: MCF‐7 cell lines
Experiment: MTT assay, cytotoxicity on MCF-7 cells
Format: cell-based, human
Conditions: Homo sapiens, MCF7, read-out: IC50 (μM) for MCF‐7 cell lines; MTT, 48 h
Unit µM implied. Number only.

| givenSmiles | readoutKind | endpointResult |
| --- | --- | --- |
| Cc1ccc2oc(-c3ccc(-c4nc5cc(C)ccc5o4)[nH]3)nc2c1 | IC50 | 4.5 |
| Cc1ccc2oc(-c3ccc(-c4nc5cc(Cl)ccc5o4)[nH]3)nc2c1 | IC50 | 3.6 |

IC50 recorded for this compound, Cc1ccc2nc(-c3ccc(-c4nc5ccc(C)cc5o4)[nH]3)oc2c1 , is 4.38

Measured IC50 of COc1ccc2oc(-c3ccc(-c4nc5cc(OC)ccc5o4)[nH]3)nc2c1 : 4.19

Lookup result for COc1ccc2oc(-c3ccc(-c4nc5cc(C)ccc5o4)[nH]3)nc2c1 ; measured IC50: 3.49

* * *

Reported IC50 by item:
Tested on: MCF‐7 cell lines
Assay: MTT assay, cytotoxicity on MCF-7 cells
Type: cell-based, human
Settings: Homo sapiens, MCF7; MTT, 72 h; read-out: IC50 (μM) for MCF‐7 cell lines, 72 h

IC50 reported for this compound Cc1ccc2oc(-c3ccc(-c4nc5cc(Cl)ccc5o4)[nH]3)nc2c1 [Compound B13] : 3.28 µM

Memo: COc1ccc2oc(-c3ccc(-c4nc5ccccc5o4)[nH]3)nc2c1 [Compound B8] , reported IC50: 3.09 µM

Record Cc1ccc2oc(-c3ccc(-c4nc5cc(C)ccc5o4)[nH]3)nc2c1 [Compound B2] , field IC50: 2.06 µM

IC50 in this record for Clc1ccc2oc(-c3ccc(-c4nc5cc(Cl)ccc5o4)[nH]3)nc2c1 [Compound B5] : 3.28 µM

Item: COC(=O)c1ccc2nc(-c3ccc(-c4nc5ccccc5o4)[nH]3)oc2c1 [Compound B10] | IC50: 2.44 µM
